The entries below are paired with their reported cell density relative to control, A. baumannii ATCC 19606.
System: Acinetobacter baumannii ATCC 19606
Test: Antibacterial screen at 200 μg/mL (cell density vs control)
Assay type: cell-based
Conditions: peptide 200 μg/mL, CAMHB, 5 × 10^5 CFU/mL, 37°C, 12 h, OD600; control (no AMP) = 1; three biological replicates
No unit in the answer, only the number.

# example entries with known answers
MCRFKCKVRTTITRPVCCWLIFM [Cand-168, chemically synthesized candidate AMP predicted from marine biofilm bacteria]; 1
MCTRSCRPNLVKC [Cand-47, chemically synthesized candidate AMP predicted from marine biofilm bacteria]; 0.895
MWTVRPRICAARGRL [Cand-172, chemically synthesized candidate AMP predicted from marine biofilm bacteria]; 1
MRPGMCRIGGRL [Cand-22, chemically synthesized candidate AMP predicted from marine biofilm bacteria]; 1
MGPHWRGPRWGRVGCWNL [Cand-154, chemically synthesized candidate AMP predicted from marine biofilm bacteria]; 1
MQPILKKAAPKHVGYFYKCYL [Cand-119, chemically synthesized candidate AMP predicted from marine biofilm bacteria]; 0.908

Sample MRKGCKLIPCICDVNCRRRTG [Cand-8, chemically synthesized candidate AMP predicted from marine biofilm bacteria] ; cell density relative to control, A. baumannii ATCC 19606 observed: 0.201

// field: cell density relative to control, A. baumannii ATCC 19606; key: MLKLSWNLCRPIGRRW [Cand-186, chemically synthesized candidate AMP predicted from marine biofilm bacteria] ; value = 0.276

Lab note: MRVGMCRIGGRL [Cand-79, chemically synthesized candidate AMP predicted from marine biofilm bacteria] gave cell density relative to control, A. baumannii ATCC 19606 of 0.975

cell density relative to control, A. baumannii ATCC 19606 in this record for MRQGMCRIGGRL [Cand-55, chemically synthesized candidate AMP predicted from marine biofilm bacteria] : 0.845

The measured cell density relative to control, A. baumannii ATCC 19606 associated with MAWISTRIACCCSTRLRRRIRTCSTSFCR [Cand-218, chemically synthesized candidate AMP predicted from marine biofilm bacteria] reads 0.029

MRPCMCRIGGGH [Cand-13, chemically synthesized candidate AMP predicted from marine biofilm bacteria] yielded cell density relative to control, A. baumannii ATCC 19606 of 0.816
